# Tested on: MCF7 breast
# assay info: NCI tumour cell line growth inhibition, 48 h
The compounds listed here are annotated with their TGI.

compound	target desc	TGI
COC1C(O)CC(OC2CC(OC3CC(O[C@@H]4C(=O)c5c(cc6cc(OC7CC(OC8CC(O)C(O)C(C)O8)C(O)C(C)O7)c(C)c(O)c6c5O)CC4[C@H](OC)C(=O)O)OC(C)C3O)OC(C)C2O)OC1C (stereo partly specified)	MCF7 breast	> 33.3 µM
S=C(N/N=C(\c1ccccc1)c1ccccn1)NC1CCCCC1	MCF7 breast	> 100 µM
CN(C)c1ccc(/C=C/c2ccc(S(N)(=O)=O)cc2)cc1	MCF7 breast	> 100 µM
COC1CCON1C(=O)c1ccccc1 (stereo unspecified)	MCF7 breast	> 10 µM
CN(C)CCN1C(=O)c2cccc3cc([N+](=O)[O-])cc(c23)C1=O	MCF7 breast	0.743 µM
CCCCCCCCCCCCOP(=O)(O)OP(=O)(O)OCC1OC(n2ccc(N)nc2=O)CC1O (stereo unspecified)	MCF7 breast	> 100 µM
CC(Oc1ccccc1Cl)C(=O)NN1C(=O)CC(=O)N(c2ccccc2)C1=S (stereo unspecified)	MCF7 breast	> 100 µM
O=c1[nH]c2ccccc2c2nc3ccccc3n12	MCF7 breast	> 100 µM
O=S(=O)(CCN1CCOCC1)Nc1cc(-c2ccc3ncnc(Nc4ccc(F)c(Cl)c4)c3c2)cnc1Cl	MCF7 breast	22.9 µM
Cn1c(=O)c(Oc2ccc(F)cc2F)cc2cnc(NC(C)(C)CO)nc21	MCF7 breast	> 25 µM
CC(=O)c1[nH]c(NC(C)C)c(C(=S)Nc2ccccc2)c1N	MCF7 breast	42.2 µM
Cc1cc(Cl)nc2nc(Cl)c(N)cc12	MCF7 breast	> 22.2 µM
O=C1C(=C(C(F)(F)Cl)C(F)(F)Cl)C2CCC1C2 (stereo unspecified)	MCF7 breast	> 6.52 µM
CC12C3C4C1C1C2C3C41CO (stereo unspecified)	MCF7 breast	> 100 µM
O=P1(c2ccccc2)c2ccccc2-c2ccccc21	MCF7 breast	> 100 µM
CC1(c2sccc2Cl)CC(c2sccc2Cl)=C(C#N)C(=C(C#N)C#N)N1 (stereo unspecified)	MCF7 breast	48.5 µM
C=C1CC2(CC(c3ccccc3Cl)OC(c3ccccc3Cl)C2)OC1=O (stereo unspecified)	MCF7 breast	5 µM
COc1cc2c3cc1Oc1c(OC)c(OC)cc4c1C(=NCC4)Cc1ccc(cc1)Oc1cc(ccc1O)C[C@H]3N(C)CC2	MCF7 breast	70 µM
COc1cc(C2c3cc4c(cc3[C@@H](Nc3cccc(CO)c3)C3COC(=O)[C@H]23)OCO4)cc(OC)c1O (stereo partly specified)	MCF7 breast	26.3 µM
CCOC(=O)NN(C(=O)OCC)C(C(=O)C1=CCCCC1)N(NC(=O)OCC)C(=O)OCC	MCF7 breast	> 100 µM
Cc1cccc(Br)[n+]1[O-]	MCF7 breast	> 100 µM
